Taken from paper PMC4278837.

Parameter: Ki. Scope: all listed entries.
Biological target: muPA Y99A (Mus musculus, UniProt P06869, Y274A)
Construct: To ensure that the uPAs purified from the conditioned media were completely in the two-chain form, they were treated with plasmin; hexa-His (C); made in house; host or cells: HEK293 6E suspension cells
Sequence (P06869 180-433 Y274A): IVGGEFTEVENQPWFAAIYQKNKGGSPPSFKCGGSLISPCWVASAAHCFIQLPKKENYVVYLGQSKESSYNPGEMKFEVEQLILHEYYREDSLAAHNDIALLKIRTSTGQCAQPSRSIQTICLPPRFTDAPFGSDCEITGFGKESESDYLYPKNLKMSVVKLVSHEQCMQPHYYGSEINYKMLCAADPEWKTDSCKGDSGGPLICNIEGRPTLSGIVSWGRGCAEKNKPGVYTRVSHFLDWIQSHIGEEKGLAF
Sequence (P06869 21-178 partner limits assumed): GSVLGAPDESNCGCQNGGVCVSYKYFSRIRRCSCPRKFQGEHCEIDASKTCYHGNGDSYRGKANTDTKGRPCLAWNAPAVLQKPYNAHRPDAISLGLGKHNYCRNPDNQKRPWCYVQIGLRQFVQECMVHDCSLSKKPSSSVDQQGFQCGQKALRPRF
Experiment: Ki for inhibition of muPA-Y99A, chromogenic substrate
Type: biochemical, murine
Conditions: means ± S.D.; read-out: K i for inhibition of muPA-Y99A
Bridge positions count the residues as written; N and C are the ends. Square brackets hold non-standard residues; d marks the D form. Peptide text beside a SMILES is read from it. Ala(1-amidino-4-piperidyl) = N=C(N)N1CCC(C[C@H](N)C(=O)O)CC1; Phe(4-guanidino) = N=C(N)Nc1ccc(C[C@H](N)C(=O)O)cc1
measurement_kind: Ki (µM)

[
  {
    "compound": "CC(=O)N[C@H]1CSSC[C@@H](C(N)=O)NC(=O)[C@H](C)NC(=O)[C@H](CC(C)C)NC(=O)[C@H](Cc2ccc(O)cc2)NC(=O)[C@H](CC2CCN(C(=N)N)CC2)NC(=O)[C@H](CO)NC(=O)[C@H](Cc2ccc(O)cc2)NC(=O)[C@H](C)NC(=O)[C@@H]2CCCN2C1=O [Mupain-1-16 D9A] (Ac-CPAYS[Ala(1-amidino-4-piperidyl)]YLAC-NH2; disulfide 1-10)",
    "value_observed": 1.36
  },
  {
    "compound": "CC(=O)N[C@H]1CSSC[C@@H](C(N)=O)NC(=O)[C@H](CC(=O)O)NC(=O)[C@H](CC(C)C)NC(=O)[C@H](Cc2ccc(O)cc2)NC(=O)[C@H](Cc2ccc(NC(=N)N)cc2)NC(=O)[C@H](CO)NC(=O)[C@H](Cc2ccc(O)cc2)NC(=O)[C@H](C)NC(=O)[C@@H]2CCCN2C1=O [Mupain-1-12, CPAYS[4-guanidino-phenyl-alanine]YLDC] (Ac-CPAYS[Phe(4-guanidino)]YLDC-NH2; disulfide 1-10)",
    "value_observed": 5.2
  },
  {
    "compound": "CC(=O)N[C@H]1CSSC[C@@H](C(N)=O)NC(=O)[C@H](C)NC(=O)[C@H](CC(C)C)NC(=O)[C@H](Cc2ccc(O)cc2)NC(=O)[C@H](CCCNC(=N)N)NC(=O)[C@H](CO)NC(=O)[C@H](Cc2ccc(O)cc2)NC(=O)[C@H](C)NC(=O)[C@@H]2CCCN2C1=O [Mupain-1 D9A, CPAYSRYLAC] (Ac-CPAYSRYLAC-NH2; disulfide 1-10)",
    "value_observed": 27.2
  }
]
